Quick reference: pKd of the listed items.
- Test Target: MAGEB2 peptide … / HLA-A*02:01 / b2m (human)
- Procedure Details: FACS
pKd: −log10 of the molar value.

Binder | pKd
MA 03-H12_AS CC (K5A) (antibody, V domains shown) VH: EVQLLESGGGLVQPGGSLRLSCAASGFTFSSHAMSWVRQAPGKCLEWVSAISGSGGGTYNAASVKGRFTISRDNSKNTLYLQMNSLRAEDTAAYYCVTGKGVHLGFDYWGQGTLVTVSS VL: SYVLTQPPSVSVAPGQTARITCGGNNIGSKSVHWYQQKPGQAPVMVVYDDNDRPSGIPERFSGSNFGNTATLTISRVEAGDEADYYCQVWDYVTPRWVFGCGTKLTVL | 8.96
MA 10-D6 CC (V6Z) (antibody, V domains shown) VH: EVQLVESGGGLVKPGGSLRLSCAASGFTFSNAWMSWVRQAPGKCLEWVGRILNNAYGGTTDYAAPVKGRFTISRDDSKNTLYLQMNSLKTEDTAVYYCTTPSYSGSYYNYFSVMDVWGQGTTVTVSS VL: DIQMTQSPSSLSASVGDRVTITCRTSQSISSYLNWYQQKPGRAPKLLIFAASSLQGGVPSRFSGSGSGTDFTLTISSLQPEDFATYYCQQTYSMPFTFGCGTKVDIK | 9.15
MA 10-H3 CC (M9L) (antibody, V domains shown) VH: EVQLVESGGGLVQPGGSLRLSCAASGFTFSNAWMSWVRQAPGKCLEWVGRIRSRPYGGTTDYAAPVKGRFTISRDDSKNTLYLQMNSLKTEDTAVYYCTTPSYSGSYYNYFSVMDVWGQGTTVTVSS VL: DIQMTQSPSSLSASVGDRVTITCRTSQSISSYLNWYQQKPGRAPKLLIFAASSLQGGVPSRFSGSGSGTDFTLTISSLQPEDFATYYCQQTYSSPFTFGCGTKLEIK | 9.15
